Taken from patent US20100260765A1.

# testedTarget: human KDR on cells (human, UniProt P35968 20-1356)
# Sequence (P35968 20-1356): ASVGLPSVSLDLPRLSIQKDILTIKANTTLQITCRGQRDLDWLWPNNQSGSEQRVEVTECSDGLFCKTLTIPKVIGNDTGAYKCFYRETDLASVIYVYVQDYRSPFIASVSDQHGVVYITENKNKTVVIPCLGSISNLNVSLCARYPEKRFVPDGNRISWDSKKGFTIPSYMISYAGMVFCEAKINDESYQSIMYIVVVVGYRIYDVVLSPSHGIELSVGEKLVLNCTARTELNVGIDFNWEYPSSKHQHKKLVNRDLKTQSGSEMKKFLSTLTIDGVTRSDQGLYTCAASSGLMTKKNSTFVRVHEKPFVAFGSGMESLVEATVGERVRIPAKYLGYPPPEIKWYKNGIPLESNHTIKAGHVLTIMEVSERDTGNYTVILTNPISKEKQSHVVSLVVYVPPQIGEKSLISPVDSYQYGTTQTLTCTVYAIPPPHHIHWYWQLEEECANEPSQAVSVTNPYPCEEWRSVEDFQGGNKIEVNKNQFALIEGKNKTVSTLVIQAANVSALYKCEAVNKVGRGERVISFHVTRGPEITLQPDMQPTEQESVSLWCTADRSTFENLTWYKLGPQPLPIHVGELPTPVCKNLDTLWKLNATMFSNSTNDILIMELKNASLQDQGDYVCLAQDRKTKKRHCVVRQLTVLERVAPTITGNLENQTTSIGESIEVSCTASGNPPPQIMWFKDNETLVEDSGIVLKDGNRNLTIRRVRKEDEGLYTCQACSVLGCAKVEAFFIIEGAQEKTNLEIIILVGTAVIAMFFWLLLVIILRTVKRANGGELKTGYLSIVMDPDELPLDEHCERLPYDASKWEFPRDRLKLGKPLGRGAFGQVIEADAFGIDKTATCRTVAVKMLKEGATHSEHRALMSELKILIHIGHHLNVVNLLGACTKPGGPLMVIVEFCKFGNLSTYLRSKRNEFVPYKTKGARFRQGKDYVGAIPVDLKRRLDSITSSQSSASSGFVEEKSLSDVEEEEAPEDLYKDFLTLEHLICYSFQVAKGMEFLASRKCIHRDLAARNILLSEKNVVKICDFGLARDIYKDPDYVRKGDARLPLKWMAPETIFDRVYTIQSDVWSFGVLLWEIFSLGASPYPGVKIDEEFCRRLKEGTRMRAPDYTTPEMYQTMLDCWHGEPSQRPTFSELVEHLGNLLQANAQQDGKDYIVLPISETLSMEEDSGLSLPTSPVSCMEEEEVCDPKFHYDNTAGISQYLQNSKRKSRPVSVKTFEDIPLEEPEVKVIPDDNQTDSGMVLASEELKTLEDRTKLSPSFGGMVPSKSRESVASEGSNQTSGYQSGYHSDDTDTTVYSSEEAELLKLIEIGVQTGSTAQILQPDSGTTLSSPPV
# assayNotes: cell-based or functional assay
measuredEndpoint: % Inhibition (N = 2) of VEGF-C-mediated KDR activity, antibody 10 nM (%)
// note: answer is a bare numeric in %

[ask] Name the recorded % Inhibition (N = 2) of VEGF-C-mediated KDR activity, antibody 10 nM for 21H6 (antibody, V domains shown) VH: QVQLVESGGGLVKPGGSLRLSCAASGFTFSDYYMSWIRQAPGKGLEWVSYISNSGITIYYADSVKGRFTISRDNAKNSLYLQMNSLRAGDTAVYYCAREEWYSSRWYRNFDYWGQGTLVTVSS VL: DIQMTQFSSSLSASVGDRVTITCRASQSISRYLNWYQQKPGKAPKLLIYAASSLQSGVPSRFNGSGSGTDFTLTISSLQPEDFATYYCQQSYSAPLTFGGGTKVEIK .
[reply] 90

[ask] Name the recorded % Inhibition (N = 2) of VEGF-C-mediated KDR activity, antibody 10 nM for 31E11 (antibody, V domains shown) VH: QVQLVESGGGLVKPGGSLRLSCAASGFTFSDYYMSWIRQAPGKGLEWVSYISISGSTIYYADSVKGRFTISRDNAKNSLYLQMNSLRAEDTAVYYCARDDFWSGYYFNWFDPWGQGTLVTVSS VL: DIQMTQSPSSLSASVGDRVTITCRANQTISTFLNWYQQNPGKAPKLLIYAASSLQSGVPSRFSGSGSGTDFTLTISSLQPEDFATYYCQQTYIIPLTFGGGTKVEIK .
[reply] 85

[ask] Name the recorded % Inhibition (N = 2) of VEGF-C-mediated KDR activity, antibody 10 nM for 32F4 (antibody, V domains shown) VH: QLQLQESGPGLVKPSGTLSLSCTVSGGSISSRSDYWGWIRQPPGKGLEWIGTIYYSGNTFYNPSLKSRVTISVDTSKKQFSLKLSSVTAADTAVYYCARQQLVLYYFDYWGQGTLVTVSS VL: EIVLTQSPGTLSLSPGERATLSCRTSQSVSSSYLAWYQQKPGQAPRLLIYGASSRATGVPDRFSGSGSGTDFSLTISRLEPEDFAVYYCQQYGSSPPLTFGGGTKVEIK .
[reply] 79
